# maps each entry to its apparent KD of MS2 coat protein
Test system: MS2 coat protein
Assay: apparent KD of MS2 coat protein; designed switch direction (-1 OFF switch, 1 ON switch): -1; higher = weaker reporter binding
Details: input ligand: none
I only need the number, in µM, no unit after it.

Worked cases, apparent KD of MS2 coat protein given:
CCGGCUUAGGAGGAUAUAGGAGUCGAUAGACACCUAGAAGGCCUAACAUGAGGAUCACCCAUGUGACCUACCGG [Mod of Eli 28 - Jieux - Exclusion 6] (Eterna round: R97, puzzle: Exclusion 6)	0.0286
CAAAAGAAAGGAUAUACUUGAGGAUCACCCAAGUAUGCCCGCUGAAGCGGGCCCUUGAGUAGAAGGUUCAUAAA [Ened] (Eterna round: R97, puzzle: Exclusion 3)	0.0156
GCUGGUCGAGGAUAUGCAUUCGUGCUUCGGCACGUAAGGUCACAUGAGGAUCACCCAUGUAGAAGGCGACCAGC [E2/6-A1] (Eterna round: R97, puzzle: Exclusion 2)	0.0175
AUAAAACGUGUAGGAUAUGCGUGGCGAAGCUAUGCAGAAGGACAUGAGGAUCACCCAUGUUCAAGCGUCUGCGUACAGAUGCUA [JL eng1 1.35 mod 6] (Eterna round: R96, puzzle: Exclusion NG 1)	0.0145

Turning now to a further record.
*Q* Entry under review: CGGUGUAACACAGGAUAUCAUCGCAACUGACGUUGAGAAGGGUGACAUGAGGAUCACCCAUGUGAUUUCUCAAUAUUAUACAUC [Prohibition 83 - Jieux - Exclusion NG 1] (Eterna round: R96, puzzle: Exclusion NG 1) . Reported apparent KD of MS2 coat protein?
*A* 0.629

----------
Tested on: K4 kissing-loop RNA reporter
Experiment: apparent KD of K4 kissing-loop reporter; higher = weaker reporter binding
Conditions: Eterna round: R107; input ligand: FMN 200 uM
METRIC_NAME: apparent KD of K4 kissing-loop reporter (nM)
I only need the number, in nM, no unit after it.

Worked cases, apparent KD of K4 kissing-loop reporter given:
UCUGGAGCAUAUGAUACCAGCAGUGAGAGACAGGAAGUAUAGUGAUGUUAUAUGAGAGAAUGCCCUUGGCAGCGUGUGUAGUGGG [SSTheophylB.N]	174
CGCCGAUUGUCGGAGUGAUGUUCCCGGGAUACCAGCACGUCGUCAUGCCCUUGGCAGCCCAACAGACCAUUUUAAAGGCUAGCUG [theeternabot_sameState_KL_Theo_A_35]	330
AGAGUUAUAUGAGGAUAUGGGAUAGUAAAUGAGUGAGUUAUAGUGUAGUUUGUUUAGUGAUGUUAUUUAGAAGGCGUGAGUGAUG [dgnnmullin]	193
GUAGGAUGAGGAGGAGGAUGAAUUACUGAAGGAGCGCAAAGAAAUGCAGGUAGGUCGCGGUAAAGAAGUAUAGUGAUGUUAUAUC [#08 K4 Arginine A Same State]	588
CCAGGACGAUGAGGAUGAUGAAUUACUGAAGGAGCGCAUAUGGUUGCAGGUAGGUCGCGGUGAACAAGUAUAGUGAUGUUAUACC [SSArgA.U]	327

Turning now to a further record.
*Q* Entry under review: ACACUAUCGUCAUAGACGGUAGUGAAAUCACAGGAUAUAAGUGAUGUUAGAAGGGUGAAAGACUGUAUCGAAUAGAUACAGUCAA [FmnA 3 #K4BetweenAptamer #OpenEnded] . Reported apparent KD of K4 kissing-loop reporter?
*A* 1140

----------
System: K4 kissing-loop RNA reporter
Experiment: apparent KD of K4 kissing-loop reporter; higher = weaker reporter binding
Conditions: Eterna round: R107; input ligand: arginine 13.2 mM
Quick rule for you: apparent KD of K4 kissing-loop reporter at 0.2 µM or higher means 1, lower means -1.

Some solved cases for reference:
GUAGGAUGAGGAGGAGGAUGAAUUACUGAAGGAGCGCAAAGAAAUGCAGGUAGGUCGCGGUAAAGAAGUAUAGUGAUGUUAUAUC [#08 K4 Arginine A Same State]	1
GAGGAUAGCGGAAGGAGCGAGUAAUGGAGUGAUGUUCCAAUCAAUAAAACACGAUAGAGUGCUCAGGUAGGUCGCCGUGGUGGUU [Exclusion Argiie B GF 13]	-1
AAUAAAAUCACGGCCGCCACUGAUAUCCAUAUUAGGAGUGAUGUUCCUAUGACUAUAUAAUUUAACAGGACCGGGUGAAUAUUUA [JR_SSTryptoB_Sub024]	-1
CCGAUACAUUAUUCUACGGCCGAGAGUGAUACCAGCCGUAUUUGUGGCCCUUGGCAGCGCAGAUGCAGUGAUGUUGCAUACUUGU [Same State Theophylline A GF 20]	-1
GAAUUAUGUAGAAGGAGCGUCAGAAGGUAUAGGUGCGAGUGAUGUUUGGACCUGUUAAUUUGACAGGUAGGUCGCUACAGAAGGA [KL-SSArg B20 #analogue]	1

*Q* Identify whether the reported apparent KD of K4 kissing-loop reporter of the following sequence is 0.2 µM or greater: AGCCGAAAGGCGAGUGCUGUCACUCCGGAAGGAGCGCUCAAAAGAGCAGGUAGGUCGCCGGAGUGAUGUUCCGGUGCAGCACUCA [Omei KL Arginine A Exc B v4]
*A* 1

*Q* Identify whether the reported apparent KD of K4 kissing-loop reporter of the following sequence is 0.2 µM or greater: AAUUUAUUAUCUGAUACCAGACUUUUUCUUGUAUAUAAGUCAAGUGAUGUUUGACUUUUAGUCCCUUGGCAGCAGUAUUUUUUAA [JR_Nu_SSTheophyB_Sub027]
*A* -1

*Q* Identify whether the reported apparent KD of K4 kissing-loop reporter of the following sequence is 0.2 µM or greater: AGCGCUGCCUGAGGAUAUAGAGACGAGUGAUGUUCGUGGAUUGAUACCAGUGAUGUUGGUCUAUUUCUAGAAGGCAGGCGAUCGU [Exclusion FMN B GF 3]
*A* -1

*Q* Identify whether the reported apparent KD of K4 kissing-loop reporter of the following sequence is 0.2 µM or greater: ACCAAUUUACCGGCAGUAGUGAUGUUACUCCGAGGACCGGUACGGCCGCCACUCGCGAACGUAGGGUUUCUGACUCGAAGAGUCU
*A* -1

*Q* Identify whether the reported apparent KD of K4 kissing-loop reporter of the following sequence is 0.2 µM or greater: UCCUGCUGUCUGCCACGAAAGUGGAUUGAUACCAGAGUCGAAAGACUCCCUUGGCAGCGAGUGAUGUUCGAAGCAGGUAAAUAAA [MatMod 2 - Jieux - Exclusion - Theophylline A]
*A* 1

*Q* Identify whether the reported apparent KD of K4 kissing-loop reporter of the following sequence is 0.2 µM or greater: GGAGGUUGGUGCGAUACCAGACCAGCAGUGAUGUUGCGCCAAAGUGAGUGAUGUUCACCGGUCCCUUGGCAGCGCAUUCCUUUAG [Same State Theophylline B GF 14]
*A* 1

----------
Tested on: K4 kissing-loop RNA reporter;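 note: bound reporter read as fluorescence of individual clusters on recovered sequencing chips by microscopy, with normalized cluster intensities fitted with a binding model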
Test: apparent KD of K4 kissing-loop reporter; higher = weaker reporter binding
Conditions: Eterna round: R107; input ligand: arginine 13.2 mM
Quick rule for you: apparent KD of K4 kissing-loop reporter at 200 nM or higher means Criterion met, lower means Criterion not met.

Some solved cases for reference:
CGUUUCUCUGUCGAUACCAGCUUCAGUUGGCGGCCAGUGAUGUUGGUAUCGCCGAUGCCAAGCCCUUGGCAGCGACAUGAGACCC [Gezausin]	Criterion not met
AGAGAUAAGGCGGCCGCCACUAAGAUGAAACUAACGGUCAAGUGAUGUUUGCGGUUACAGUUCAGUAGGACCGGGCCGAGUAAAU [theeternabot_sameState_KL_Trp_B_47]	Criterion met
UGGCGACUGCCAGUGAUGUUGGCCGUCGUACGAGGACCGGUACGGCCGCCACUCGUCCUGGUUUAGGCUCCGCCUUCACAUCAGG [Beterire]	Criterion met
UGAUACCAGACGGCCGCCACUACACCAGUCAAAGACUGGAUGUGAUGUCUGACCAGUGAUGUUGGUAGGACCGGGUCUGGUAUCU [TrypBX 6 #Palindromic #SwitchBubble #StaticStem]	Criterion met
GGUAUCUAUACAGAUACCAGUCGUACGGCUGCAUUACAGGUUAGUGAUGUUAACCUGUACGACCCUUGGCAGCUGUAUAGUAGUA [#14 K4 Theophylline B Exclusion]	Criterion not met

*Q* Identify whether the reported apparent KD of K4 kissing-loop reporter of the following sequence is 200 nM or greater: GCAGUGAUGUUGCACGAGUAGGCUGGAGUACGAGGACCGGUACGGCCGCCACUCGUACGGAAGUCGCUAAUUUAUGGAAUGGUGA [#06 K4 Tryptophan A Same State]
*A* Criterion met

*Q* Identify whether the reported apparent KD of K4 kissing-loop reporter of the following sequence is 200 nM or greater: UGCAGUGAUGUUGCGAGUGGCAGAUACGAAGGAGCGUGGUGAGACACAGGUAGGUCGCGUAUUGAAAUUGCUGUCACUAAAAUGC [#7]
*A* Criterion met

*Q* Identify whether the reported apparent KD of K4 kissing-loop reporter of the following sequence is 200 nM or greater: AUUUUGGUUUAGAGUGAUGUUCCUUGUAUUCGAGGACCGGUACGGCCGCCACUCGAAUAGAAAAGAAAAGAAAUGUUUGAUGUUU [BDazzled - #6 SS Tryptophan A]
*A* Criterion not met

*Q* Identify whether the reported apparent KD of K4 kissing-loop reporter of the following sequence is 200 nM or greater: AGGAUGUAGUGAUGUUAUAUAAGAAGUAAACGAGGACCGGUACGGCCGCCACUCGAAACGGCUACUAGCGCGUUGCGAGGUGUGC [ExTryptoA.Cf]
*A* Criterion met

*Q* Identify whether the reported apparent KD of K4 kissing-loop reporter of the following sequence is 200 nM or greater: UCAUCAUGAUGGUAGUAACCGCAUUGGGAGCGAGGACCGGUACGGCCGCCACUCGAAAUGUACAUAGCAGUAGUGAUGUUGCUGC [theeternabot_sameState_KL_Trp_A_47]
*A* Criterion not met

Values from the supplement of paper PMC9170038
